Answer each item with its documented minimal inhibitory concentration (MIC), SA 489.
# Tested on: Staphylococcus aureus 489
# ASSAY_COMMENT: MIC, standard broth micro-dilution assay, SA 489
# Assay type: cell-based
Numbers only.

Recorded results for 5 molecules are shown here.
MOLECULE	OBS_VALUE
CC1OC(OC2c3ccc(c(Cl)c3)Oc3cc4cc(c3OC3OC(CO)C(O)C(O)C3OC3CC(C)(NCc5ccc(-c6ccccc6)cc5)C(O)C(C)O3)Oc3ccc(cc3Cl)C(O)C(NC(=O)C(Cc3c[nH]c5ccccc35)NC(=O)OC(C)(C)C)C(=O)NC(CC(N)=O)C(=O)NC4C(=O)NC3C(=O)NC2C(=O)NC(C(=O)O)c2cc(O)cc(O)c2-c2cc3ccc2O)CC(C)(N)C1O (stereo not drawn)	1
CCCCCCNC(CC(C)C)C(=O)NC1C(=O)NC(CC(N)=O)C(=O)NC2C(=O)NC3C(=O)NC(C(=O)NC(C(=O)O)c4cc(O)cc(O)c4-c4cc3ccc4O)C(OC3CC(C)(N)C(O)C(C)O3)c3ccc(c(Cl)c3)Oc3cc2cc(c3OC2OC(CO)C(O)C(O)C2OC2CC(C)(NCCCCCC)C(O)C(C)O2)Oc2ccc(cc2Cl)C1O (stereo not drawn)	0.25
CC1OC(OC2C(Oc3c4cc5cc3Oc3ccc(cc3Cl)[C@@H](O)[C@@H](NC(=O)c3ccc(-c6ccccc6)cc3)C(=O)N[C@@H](CC(N)=O)C(=O)N[C@H]5C(=O)N[C@H]3C(=O)NC(C(=O)N[C@H](C(=O)O)c5cc(O)cc(O)c5-c5cc3ccc5O)[C@H](OC3CC(C)(N)C(O)C(C)O3)c3ccc(c(Cl)c3)O4)OC(CO)C(O)C2O)CC(C)(N)C1O (stereo partly drawn) [Example 1, N^1-(p-phenylbenzoyl)desleucylA82846B]	0.5
CC1OC(OC2c3ccc(c(Cl)c3)Oc3cc4cc(c3OC3OC(CO)C(O)C(O)C3OC3CC(C)(NCc5ccc(-c6ccccc6)cc5)C(O)C(C)O3)Oc3ccc(cc3Cl)C(O)C(NC(=O)C(N)CCCCN)C(=O)NC(CC(N)=O)C(=O)NC4C(=O)NC3C(=O)NC2C(=O)NC(C(=O)O)c2cc(O)cc(O)c2-c2cc3ccc2O)CC(C)(N)C1O (stereo not drawn) [Example 23]	0.5
CC(C)CC(NCc1ccc(-c2ccccc2)cc1)C(=O)NC1C(=O)NC(CC(N)=O)C(=O)NC2C(=O)NC3C(=O)NC(C(=O)NC(C(=O)O)c4cc(O)cc(O)c4-c4cc3ccc4O)C(OC3CC(C)(N)C(O)C(C)O3)c3ccc(c(Cl)c3)Oc3cc2cc(c3OC2OC(CO)C(O)C(O)C2OC2CC(C)(NCc3ccc(-c4ccccc4)cc3)C(O)C(C)O2)Oc2ccc(cc2Cl)C1O (stereo not drawn)	2

Look at each molecule and report its minimal inhibitory concentration (MIC), SA 489.
1. CC1OC(OC2c3ccc(c(Cl)c3)Oc3cc4cc(c3OC3OC(CO)C(O)C(O)C3OC3CC(C)(NCc5ccc(-c6ccccc6)cc5)C(O)C(C)O3)Oc3ccc(cc3Cl)C(O)C(NC(=O)CCCCCCCc3ccccc3)C(=O)NC(CC(N)=O)C(=O)NC4C(=O)NC3C(=O)NC2C(=O)NC(C(=O)O)c2cc(O)cc(O)c2-c2cc3ccc2O)CC(C)(N)C1O (stereo not drawn)
2. CC1OC(OC2c3ccc(c(Cl)c3)Oc3cc4cc(c3OC3OC(CO)C(O)C(O)C3OC3CC(C)(NCc5ccc(-c6ccccc6)cc5)C(O)C(C)O3)Oc3ccc(cc3Cl)C(O)C(NC(=O)c3ccc(-c5ccccc5)cc3)C(=O)NC(CC(N)=O)C(=O)NC4C(=O)NC3C(=O)NC2C(=O)NC(C(=O)O)c2cc(O)cc(O)c2-c2cc3ccc2O)CC(C)(N)C1O (stereo not drawn)
3. CC(C)CCC(=O)N[C@H]1C(=O)N[C@@H](CC(N)=O)C(=O)N[C@H]2C(=O)N[C@H]3C(=O)NC(C(=O)N[C@H](C(=O)O)c4cc(O)cc(O)c4-c4cc3ccc4O)[C@H](OC3CC(C)(N)C(O)C(C)O3)c3ccc(c(Cl)c3)Oc3cc2cc(c3OC2OC(CO)C(O)C(O)C2OC2CC(C)(N)C(O)C(C)O2)Oc2ccc(cc2Cl)[C@H]1O (stereo partly drawn)
4. CC1OC(OC2c3ccc(c(Cl)c3)Oc3cc4cc(c3OC3OC(CO)C(O)C(O)C3OC3CC(C)(NCc5ccc(-c6ccc(Cl)cc6)cc5)C(O)C(C)O3)Oc3ccc(cc3Cl)C(O)C(NC(=O)CCCCCCCc3ccccc3)C(=O)NC(CC(N)=O)C(=O)NC4C(=O)NC3C(=O)NC2C(=O)NC(C(=O)O)c2cc(O)cc(O)c2-c2cc3ccc2O)CC(C)(N)C1O (stereo not drawn)
5. CNC(C(=O)NC1C(=O)NC(CC(N)=O)C(=O)NC2C(=O)NC3C(=O)NC(C(=O)NC(C(=O)O)c4cc(O)cc(O)c4-c4cc3ccc4O)C(OC3CC(C)(N)C(O)C(C)O3)c3ccc(c(Cl)c3)Oc3cc2cc(c3OC2OC(CO)C(O)C(O)C2OC2CC(C)(N)C(O)C(C)O2)Oc2ccc(cc2Cl)C1O)C(C)C (stereo not drawn)
6. CC(C)CC(NC(=O)OC(C)(C)C)C(=O)NC1C(=O)NC(CC(N)=O)C(=O)NC2C(=O)NC3C(=O)NC(C(=O)NC(C(=O)O)c4cc(O)cc(O)c4-c4cc3ccc4O)C(OC3CC(C)(N)C(O)C(C)O3)c3ccc(c(Cl)c3)Oc3cc2cc(c3OC2OC(CO)C(O)C(O)C2OC2CC(C)(NCc3ccc(-c4ccccc4)cc3)C(O)C(C)O2)Oc2ccc(cc2Cl)C1O (stereo not drawn) [Example 11]

Reply text:
[1, 2, 0.5, 8, 0.5, 2]

====

# Tested on: Staphylococcus aureus SA1199
# ASSAY_COMMENT: MIC, standard broth micro-dilution assay, SA 1199
# Format: cell-based
READOUT: minimal inhibitory concentration (MIC), SA 1199
Numbers only.

Some molecules with recorded minimal inhibitory concentration (MIC), SA 1199:
MOLECULE	OBS_VALUE
CC1OC(OC2c3ccc(c(Cl)c3)Oc3cc4cc(c3OC3OC(CO)C(O)C(O)C3OC3CC(C)(NCc5ccc(-c6ccc(Cl)cc6)cc5)C(O)C(C)O3)Oc3ccc(cc3Cl)C(O)C(NC(=O)CCCCCCNC(=O)OC(C)(C)C)C(=O)NC(CC(N)=O)C(=O)NC4C(=O)NC3C(=O)NC2C(=O)NC(C(=O)O)c2cc(O)cc(O)c2-c2cc3ccc2O)CC(C)(N)C1O (centres unmarked) [Example 9]	1
CC1OC(OC2c3ccc(c(Cl)c3)Oc3cc4cc(c3OC3OC(CO)C(O)C(O)C3OC3CC(C)(NCc5ccc(-c6ccccc6)cc5)C(O)C(C)O3)Oc3ccc(cc3Cl)C(O)C(NC(=O)C3CCCN3)C(=O)NC(CC(N)=O)C(=O)NC4C(=O)NC3C(=O)NC2C(=O)NC(C(=O)O)c2cc(O)cc(O)c2-c2cc3ccc2O)CC(C)(N)C1O (centres unmarked) [Example 12]	1
CC(C)CC(NCc1ccc(-c2ccccc2)cc1)C(=O)NC1C(=O)NC(CC(N)=O)C(=O)NC2C(=O)NC3C(=O)NC(C(=O)NC(C(=O)O)c4cc(O)cc(O)c4-c4cc3ccc4O)C(OC3CC(C)(N)C(O)C(C)O3)c3ccc(c(Cl)c3)Oc3cc2cc(c3OC2OC(CO)C(O)C(O)C2OC2CC(C)(NCc3ccc(-c4ccccc4)cc3)C(O)C(C)O2)Oc2ccc(cc2Cl)C1O (centres unmarked) [Example 35]	2

Below are some molecules; for each one, tell me its minimal inhibitory concentration (MIC), SA 1199.
1. CC1OC(OC2c3ccc(c(Cl)c3)Oc3cc4cc(c3OC3OC(CO)C(O)C(O)C3OC3CC(C)(NCc5ccc(-c6ccccc6)cc5)C(O)C(C)O3)Oc3ccc(cc3Cl)C(O)C(NC(=O)C(N)Cc3ccc(Cl)cc3)C(=O)NC(CC(N)=O)C(=O)NC4C(=O)NC3C(=O)NC2C(=O)NC(C(=O)O)c2cc(O)cc(O)c2-c2cc3ccc2O)CC(C)(N)C1O (centres unmarked) [Example 33]
2. CC1OC(OC2C(Oc3c4cc5cc3Oc3ccc(cc3Cl)[C@@H](O)[C@@H](NC(=O)[C@H]3CCCN3C(=O)OC(C)(C)C)C(=O)N[C@@H](CC(N)=O)C(=O)N[C@H]5C(=O)N[C@H]3C(=O)NC(C(=O)N[C@H](C(=O)O)c5cc(O)cc(O)c5-c5cc3ccc5O)[C@H](OC3CC(C)(N)C(O)C(C)O3)c3ccc(c(Cl)c3)O4)OC(CO)C(O)C2O)CC(C)(N)C1O (some centres unmarked) [Example 24]

Reply text:
0.5
2

====

Give minimal inhibitory concentration (MIC), Resistant for every item shown.
# System: Resistant Enterococcus faecium and faecalis
# ASSAY_COMMENT: MIC, standard broth micro-dilution assay, Resistant
# Assay type: cell-based
# ASSAY_CONTEXT: geometric mean of 4-6 isolates
# Description: The antibacterial efficacy of the present compounds is illustrated by Table III. The minimal inhibitory concentrations (MICs) were determined using a standard broth micro-dilution assay.
Numbers only.

Example entries and their recorded answers appear below.
COMPOUND	SYSTEM_NAME	OBS_VALUE
CCCCCCNC(CC(C)C)C(=O)NC1C(=O)NC(CC(N)=O)C(=O)NC2C(=O)NC3C(=O)NC(C(=O)NC(C(=O)O)c4cc(O)cc(O)c4-c4cc3ccc4O)C(OC3CC(C)(N)C(O)C(C)O3)c3ccc(c(Cl)c3)Oc3cc2cc(c3OC2OC(CO)C(O)C(O)C2OC2CC(C)(N)C(O)C(C)O2)Oc2ccc(cc2Cl)C1O (stereo not drawn) [Example 39]	Resistant Enterococcus faecium and faecalis	45
CC(C)CC(NC(=O)OC(C)(C)C)C(=O)NC1C(=O)NC(CC(N)=O)C(=O)NC2C(=O)NC3C(=O)NC(C(=O)NC(C(=O)O)c4cc(O)cc(O)c4-c4cc3ccc4O)C(OC3CC(C)(N)C(O)C(C)O3)c3ccc(c(Cl)c3)Oc3cc2cc(c3OC2OC(CO)C(O)C(O)C2OC2CC(C)(NCc3ccc(-c4ccccc4)cc3)C(O)C(C)O2)Oc2ccc(cc2Cl)C1O (stereo not drawn) [Example 18]	Resistant Enterococcus faecium and faecalis	27

Next compound, minimal inhibitory concentration (MIC), Resistant to be filled in.
Inquiry: I would be grateful if you could share the reported minimal inhibitory concentration (MIC), Resistant for CC(C)CC(NCc1ccc(-c2ccccc2)cc1)C(=O)NC1C(=O)NC(CC(N)=O)C(=O)NC2C(=O)NC3C(=O)NC(C(=O)NC(C(=O)O)c4cc(O)cc(O)c4-c4cc3ccc4O)C(OC3CC(C)(N)C(O)C(C)O3)c3ccc(c(Cl)c3)Oc3cc2cc(c3OC2OC(CO)C(O)C(O)C2OC2CC(C)(NCc3ccc(-c4ccccc4)cc3)C(O)C(C)O2)Oc2ccc(cc2Cl)C1O (stereo not drawn) [Example 35] .
Reply text: 4.8
